assay name: Primary qHTS for inhibitors of nuclear receptor binding SET domain protein 2 (NSD2) in an RCH-ACV wild type WT cells (2C) (AID 1645877); note: nearly all actives have a fitted effect of over 70% in size
assay conditions: RCH-ACV (leukaemia line) NSD2 WT (2C) viability, CellTiter-Glo, 72 h; series mostly up to 44.9 µM
Results filed as inconclusive are left out. The source made the active and inactive calls. Calls come from the whole dose curve; as a rule, active = well fitted inhibition curve with a large enough effect; inconclusive = small, poorly fitted or top-dose-only effect; inactive = no such curve, though single readings can be large or run the other way.
Can you answer with just one of these options? label 1 for active, label 0 for inactive

{"substance smiles": "C[C@@]1(c2cc(-c3cncnc3)c(F)cc2F)CCSC(N)=N1", "qualitative label": "label 0"}

# input In this assay, the call recorded for O=C(c1ccc(C(=O)N2CCC(N3CCCC3)CC2)c(Nc2ccccc2)c1)N1CCC(N2CCCC2)CC1 was what?
# output label 0

# input In this assay, the call recorded for NC(=O)c1noc([C@H](CCCC2CCCCC2)CC(=O)NO)n1 was what?
# output label 1

# input In this assay, the call recorded for COc1ccc(CCC(=O)Nc2nc3ccc(Cl)cc3s2)cc1OC was what?
# output label 0

# input In this assay, the call recorded for O=c1[nH]nc(OCCCc2ccc(Cl)cc2)c(NCc2cccnc2)c1Br was what?
# output label 1

# input In this assay, the call recorded for Cc1ccc(C(=O)N(CCCN)[C@@H](c2oc3cc(Cl)ccc3c(=O)c2Cc2ccccc2)C(C)C)cc1 was what?
# output label 1

# input In this assay, the call recorded for C[C@]12CC[C@@H]3c4ccc(O)cc4CC[C@H]3[C@H]1[C@@H](O)[C@@H](O)[C@H]2O was what?
# output label 0

# input In this assay, the call recorded for N#Cc1ccc(Oc2ccc3c(c2)COB3O)cc1 was what?
# output label 1

# input In this assay, the call recorded for CC(C)C[C@H](NC(=O)c1cc2ccccc2s1)C(=O)N1CCN(C(=O)[C@H](CO)NS(=O)(=O)c2ccc(Cl)cc2Cl)CC1 was what?
# output label 1

---

Overview of recorded parasite growth, % of control (lower = inhibition) for various molecules
assay name: qHTS profiling of the MIPE4 collection as inhibitors of Plasmodium falciparum (DD2) proliferation (Rep 2) (AID 743346)
assay conditions: P. falciparum Dd2 in erythrocytes, SYBR Green DNA, 72 h; at 28.5 µM (top of the series) unless noted
Param answer (str): number followed by unit.

Some molecules with known parasite growth, % of control (lower = inhibition) results, for comparison:
{"substance smiles": "CC(C)(CO)[C@@H](O)C(=O)NCCC(=O)O", "observed measurement": "114%"}
{"substance smiles": "COc1cc2nc(-c3cc(F)ccc3O)nc(N[C@@H]3CNC[C@@H]3C(C)(C)O)c2cc1OC", "observed measurement": "8.84%"}
{"substance smiles": "CC(=O)NCCC(=O)N[C@@H](CCC(N)=O)C(=O)N[C@@H](CO)C(=O)N[C@@H](CCC(N)=O)C(=O)N[C@@H](CCC(N)=O)C(=O)N[C@H](C(=O)N[C@@H](Cc1ccccc1)C(=O)N[C@]1(C)CCCCCCC=CCCC[C@@](C)(C(=O)N[C@@H](CCC(N)=O)C(=O)N[C@@H](CC(N)=O)C(N)=O)NC(=O)[C@H](CC(C)C)NC(=O)[C@H](CC(C)C)NC(=O)[C@@H](CCCNC(=N)N)NC(=O)[C@H](Cc2c[nH]c3ccccc23)NC(=O)[C@H](CC(C)C)NC(=O)[C@H](CC(N)=O)NC1=O)[C@H](C)O", "observed measurement": "28.5%"}
{"substance smiles": "CC(C)CN(C[C@@H](O)[C@H](Cc1ccccc1)NC(=O)O[C@H]1CO[C@H]2OCC[C@H]21)S(=O)(=O)c1ccc(N)cc1", "observed measurement": "101%"}

Now let's try a different one.
# input Give the measured parasite growth, % of control (lower = inhibition) of CN(C)CCOc1ccc(C(=C(CCCl)c2ccccc2)c2ccccc2)cc1 .
# output 19.5%

---

assay name: qHTS of pediatric cancer cell lines to identify multiple opportunities for drug repurposing: Primary screen for Rh18 cells (AID 1347102); note: % is set by controls: 0 for no effect and ±100 for the full control effect; nearly all actives have a fitted effect of over 65% in size
assay conditions: Rh18 rhabdomyosarcoma viability, CellTiter-Glo luminescence, 48 h; series mostly up to 46 µM
Inconclusive results are not listed. Active and inactive are the calls of the source. Calls follow the shape of the dose curve; as a rule, active = well fitted cell-killing curve with a large enough effect; inconclusive = small, poorly fitted or top-dose-only effect; inactive = flat fitted curve, though single readings scatter.
Can you answer with just one of these options? active, inactive

Completed entries (count: 3):
{"compound": "c1ccc(CNc2nc(N3CCOc4ccccc43)nc3c2CCCC3)cc1", "qualitative label": "inactive"}
{"compound": "C[C@@H](NC(=O)c1ncnc(N)c1Cl)c1ncc(C(=O)Nc2cc(C(F)(F)F)c(Cl)cn2)s1", "qualitative label": "inactive"}
{"compound": "CC(=O)OCC(=O)[C@@]1(O)CC[C@H]2[C@@H]3CCC4=CC(=O)C=C[C@]4(C)[C@@H]3[C@@H](O)C[C@@]21C", "qualitative label": "inactive"}

# input In this assay, the call recorded for CNC1[C@H](O)C(O[C@@H]2C(O)C(O[C@H]3O[C@H]([C@@H](C)NC)CC[C@H]3N)[C@@H](N)C[C@H]2N)OC[C@]1(C)O (some centres not stated) was what?
# output inactive

---

Test system: HB3
assay name: qHTS profiling for inhibitors of Plasmodium falciparum proliferation (AID 504749);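 note: 0% = DMSO vehicle and full inhibition = artemisinin control; nearly all actives have a fitted effect of over 60% in size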
assay conditions: P. falciparum in erythrocytes, SYBR Green DNA, 72 h; series mostly up to 28.7 µM
Procedure: NIH National Institute of Allergy and Infectious Diseases [NIAID] NIH Chemical Genomics Center [NCGC] […] Because mature erythrocytes lack DNA, only Plasmodium-derived DNA is detected. NCGC Assay Protocol Summary: The SYBR Green viability assay was adapted from a method described previously (Plouffe et al., 2008). […] The following morning, fluorescence intensity at 485(14) nm excitation and 535(25) nm emission wavelengths was measured on an EnVision (Perkin Elmer) plate reader. […]
Inconclusive results are not listed. Activity calls are given as the source filed them. Calls come from the whole dose curve; as a rule, active = well fitted inhibition curve with a large enough effect; inconclusive = small, poorly fitted or top-dose-only effect; inactive = flat fitted curve, though single readings scatter.
property measured: outcome

Some compounds with known outcome results, for comparison:
{"compound": "N#Cc1c(N(CC(=O)O)CC(=O)O)sc(C(=O)O)c1CC(=O)O", "property measured": "outcome", "observed measurement": "inactive"}
{"compound": "COc1ccnc(CS(=O)c2nc3ccc(OC(F)F)cc3[nH]2)c1OC (stereo not drawn)", "property measured": "outcome", "observed measurement": "inactive"}
{"compound": "Cc1cc2nc3c(=O)[nH]c(=O)nc-3n(CC(O)C(O)C(O)CO)c2cc1C (stereo not drawn)", "property measured": "outcome", "observed measurement": "inactive"}
{"compound": "CN1CCN2c3ncccc3Cc3ccccc3C2C1 (stereo not drawn)", "property measured": "outcome", "observed measurement": "inactive"}
{"compound": "CC(C)CN(C[C@@H](O)[C@H](Cc1ccccc1)NC(=O)O[C@H]1CO[C@H]2OCC[C@H]21)S(=O)(=O)c1ccc(N)cc1", "property measured": "outcome", "observed measurement": "inactive"}
{"compound": "O=C1C(CCC(O)c2ccc(F)cc2)C(c2ccc(O)cc2)N1c1ccc(F)cc1 (stereo not drawn)", "property measured": "outcome", "observed measurement": "inactive"}
{"compound": "NS(=O)(=O)c1cc(Cl)c(Cl)c(S(N)(=O)=O)c1", "property measured": "outcome", "observed measurement": "inactive"}

# input Give the measured outcome of N#CC(c1ccc(Cl)cc1)c1c(Cl)cc(-n2ncc(=O)[nH]c2=O)cc1Cl (stereo not drawn) .
# output inactive

---

System: CASKI
assay name: Primary qHTS to identify gynecologic anti-cancer compounds using libraries of approved drugs and bioactive compounds (AID 1345084); note: nearly all actives have a fitted effect of over 55% in size
assay conditions: Gynecologic cancer cell panel viability, ATPlite luminescence, 48 h; series mostly up to 57.5 µM
Inconclusive results are not listed. Calls of active or inactive are those of the source. Calls follow the shape of the dose curve; as a rule, active = well fitted cell-killing curve with a large enough effect; inconclusive = small, poorly fitted or top-dose-only effect, or effect the other way; inactive = flat fitted curve, though single readings scatter.
Can you answer with just one of these options? active, inactive

Completed entries (count: 6):
{"molecule": "OC[C@H]1O[C@@H](OCCc2ccc(O)cc2)[C@H](O)[C@@H](O)[C@H]1O", "tested system": "CASKI", "qualitative label": "inactive"}
{"molecule": "O=C(O)CCNc1cc(N2CCc3ccccc3CC2)nc(-c2ccccn2)n1", "tested system": "CASKI", "qualitative label": "inactive"}
{"molecule": "CN(C)CCOc1cc(-c2cn[nH]c2)ccc1NC(=O)C1COc2ccccc2O1 (stereo not drawn)", "tested system": "CASKI", "qualitative label": "inactive"}
{"molecule": "Nc1ncnc2c1c(-c1cccc(OCc3ccccc3)c1)cn2C1CC(CN2CCC2)C1 (stereo not drawn)", "tested system": "CASKI", "qualitative label": "active"}
{"molecule": "Cc1cc(-c2ncc(CC(=O)Nc3ccc(-c4cnccn4)cn3)cc2C)ccn1", "tested system": "CASKI", "qualitative label": "inactive"}
{"molecule": "CN(C)CCCNC(=O)c1ccc(-c2cc(O)c3ncccc3c2)cc1", "tested system": "CASKI", "qualitative label": "inactive"}

# input In this assay, the call recorded for CS(=O)(=O)c1ccc(C2=C(c3ccccc3)C(=O)OC2)cc1 was what?
# output inactive

# input In this assay, the call recorded for COc1ccc(Cn2ccc3ccc(C(=O)NO)cc32)cc1 was what?
# output inactive

# input In this assay, the call recorded for COC(=O)N1CCN(Cc2cccc(NC(=O)Nc3ccc(C)nc3)c2F)CC1 was what?
# output inactive

# input In this assay, the call recorded for CC(=O)Nc1cccc(-n2c(=O)n(C3CC3)c(=O)c3c(Nc4ccc(I)cc4F)n(C)c(=O)c(C)c32)c1 was what?
# output inactive

# input In this assay, the call recorded for CNC(=O)c1cc(Oc2ccc(NC(=O)Nc3ccc(Cl)c(C(F)(F)F)c3)c(F)c2)ccn1 was what?
# output inactive

# input In this assay, the call recorded for C[C@@]1(c2cc(-c3cncnc3)c(F)cc2F)CCSC(N)=N1 was what?
# output inactive

# input In this assay, the call recorded for CCn1c(-c2nonc2N)nc2cncc(CNC3CCNCC3)c21 was what?
# output inactive

# input In this assay, the call recorded for CN1CCC(COc2cnc(-c3cccc(Cn4nc(-c5cccc(C#N)c5)ccc4=O)c3)nc2)CC1 was what?
# output inactive

# input In this assay, the call recorded for O=S(=O)(O)c1ccc2cc(N=Nc3cc(S(=O)(=O)O)c4cccnc4c3O)ccc2c1 was what?
# output inactive

# input In this assay, the call recorded for Cc1csc(-c2nnc(Nc3ccc(Oc4ncccc4-c4ccnc(N)n4)cc3)c3ccccc23)c1 was what?
# output inactive

# input In this assay, the call recorded for Cc1nc(C(=O)NCC(=O)O)c(O)c2ccc(Oc3ccccc3)cc12 was what?
# output inactive

# input In this assay, the call recorded for CC1CCN(c2cc(N3CCN(C)CC3)ccc2NC(=O)c2cc(C#N)c[nH]2)CC1 was what?
# output inactive

# input In this assay, the call recorded for Cc1cccc2c1CC[C@H](CN1CCC(c3c(Cl)cccc3Cl)CC1)C[C@@H]2O was what?
# output inactive

# input In this assay, the call recorded for Nc1ccc(-c2ccc3ncc4ccc(=O)n(-c5cccc(C(F)(F)F)c5)c4c3c2)cn1 was what?
# output active

# input In this assay, the call recorded for CCN1CCN(c2ccc(Nc3cc(N(C)C(=O)Nc4c(Cl)c(OC)cc(OC)c4Cl)ncn3)cc2)CC1 was what?
# output inactive

# input In this assay, the call recorded for CC1=C(C(=O)Nc2cc3cn[nH]c3cc2F)C(c2ccc(C(F)(F)F)cc2)CC(=O)N1 (stereo not drawn) was what?
# output inactive

# input In this assay, the call recorded for O=C1NC(=O)C(c2cnc3ccccn23)=C1c1cn2c3c(cccc13)CN(C(=O)N1CCOCC1)CC2 was what?
# output active

# input In this assay, the call recorded for O=C(Nc1cccc(C(F)(F)F)c1)Nc1cc(S(=O)(=O)NC2CC2)ccc1-c1ccsc1 was what?
# output inactive

# input In this assay, the call recorded for CNc1nc(Nc2ccc(C(=O)N3CCOCC3)cc2OC)ncc1Cl was what?
# output inactive

# input In this assay, the call recorded for C[C@@]1(C(=O)Nc2ccc(F)nc2)CCCN1c1nc(Nc2cc(C3CC3)[nH]n2)c2cccn2n1 was what?
# output active

# input In this assay, the call recorded for O[C@@H](COc1cccc2ncccc12)CN1CCN(C2c3ccccc3[C@@H]3[C@H](c4ccccc42)C3(F)F)CC1 (stereo partly drawn) was what?
# output inactive

# input In this assay, the call recorded for Cn1cnc(-c2cc3nccc(Oc4ccc(NC(=S)NC(=O)Cc5ccccc5)cc4F)c3s2)c1 was what?
# output inactive
